Experiment: Stability of kifunensine ester compounds in mouse serum (MALDI-TOF MS)
Assay type: in vitro ADME
Details: 4 days' incubation in mouse serum at +37° C.
Measured property: compound detected after incubation in mouse serum (ester hydrolysis)

{"columns": ["Smiles string", "Result"],
 "data": [
  ["CCCC(=O)OC[C@@H]1[C@@H](O)[C@H](O)[C@H](O)[C@H]2NC(=O)C(=O)N12", "not detected on day 4"],
  ["O=C(O)CCC(=O)OC[C@@H]1[C@@H](O)[C@H](O)[C@H](O)[C@H]2NC(=O)C(=O)N12", "still present"],
  ["CC(C)(C)C(=O)OC[C@@H]1[C@@H](O)[C@H](O)[C@H](O)[C@H]2NC(=O)C(=O)N12", "still present"],
  ["CC[C@H](C)C(=O)OC[C@@H]1[C@@H](O)[C@H](O)[C@H](O)[C@H]2NC(=O)C(=O)N12", "not detected on day 4"]
]}

Numbers sourced from patent US20230038373A1.
